Measured Kd, listed per entry.
# measurement_target: HLA-A*33:03
# experimental_details: IEDB peptide-MHC binding, purified MHC/competitive/fluorescence; filed as Kd, often an IC50 or EC50 that approximates it; bounds were set here for any values at or beyond the usual limits of such assays
# measurement_conditions: source organism: Homo sapiens
parameter_measured: Kd (nM)

> print(dat)
    sequence.code  measurement.target  parameter.measured  output.unit  value
 1      DIYNHRFHR         HLA-A*33:03                  Kd           nM    2.4
 2      QLYPRNFLR         HLA-A*33:03                  Kd           nM   3.85
 3      YVFPKPFNR         HLA-A*33:03                  Kd           nM   1.43
 4      DAQRLHYYR         HLA-A*33:03                  Kd           nM   1.37
 5      EVYDIAFSR         HLA-A*33:03                  Kd           nM   1.29
 6      STARHLYLR         HLA-A*33:03                  Kd           nM   0.92
 7      FVFDRPVHR         HLA-A*33:03                  Kd           nM   0.95
 8      ETMPSPYGR         HLA-A*33:03                  Kd           nM    3.1
 9      EFFSINAQR         HLA-A*33:03                  Kd           nM   0.28
10      ETYKYLYGR         HLA-A*33:03                  Kd           nM   1.79
11      EFQDFTVPR         HLA-A*33:03                  Kd           nM   1.78
12      MLYGLIHAR         HLA-A*33:03                  Kd           nM   3.45
13      MTILQTYFR         HLA-A*33:03                  Kd           nM   3.19
14      EFFIPRVGR         HLA-A*33:03                  Kd           nM   1.47
15      SYIDRLAPR         HLA-A*33:03                  Kd           nM   1.43
16      EFVDLYVPR         HLA-A*33:03                  Kd           nM   5.11
17      FTWNINHAR         HLA-A*33:03                  Kd           nM   3.22
18      DTYLHRVAR         HLA-A*33:03                  Kd           nM   2.19
19      EVKESPFFR         HLA-A*33:03                  Kd           nM   3.63
20      DVFPGPSFR         HLA-A*33:03                  Kd           nM   2.18
21      TTTEHRFFR         HLA-A*33:03                  Kd           nM   1.99

Ref: the Immune Epitope Database (IEDB)
